Target or system: NAMPT (human, recombinant, C-terminally His-tagged) (Homo sapiens, UniProt P43490)
Sequence (P43490 whole entry): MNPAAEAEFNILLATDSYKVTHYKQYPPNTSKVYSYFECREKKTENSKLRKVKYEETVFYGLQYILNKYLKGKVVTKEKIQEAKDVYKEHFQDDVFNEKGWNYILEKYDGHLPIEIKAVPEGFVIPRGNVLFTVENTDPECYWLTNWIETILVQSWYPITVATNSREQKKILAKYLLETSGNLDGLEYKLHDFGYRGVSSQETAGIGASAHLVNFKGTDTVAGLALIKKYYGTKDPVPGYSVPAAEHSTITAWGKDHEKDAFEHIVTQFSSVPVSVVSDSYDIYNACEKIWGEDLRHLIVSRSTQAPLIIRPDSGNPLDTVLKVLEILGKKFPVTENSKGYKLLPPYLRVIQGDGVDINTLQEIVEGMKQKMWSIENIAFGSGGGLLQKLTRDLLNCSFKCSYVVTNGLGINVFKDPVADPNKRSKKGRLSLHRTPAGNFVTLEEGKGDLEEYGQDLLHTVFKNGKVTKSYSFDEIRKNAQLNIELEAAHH
Test summary: Time-Resolved Fluorescence Resonance Energy Transfer (TR-FRET) Binding Assay of NAMPT
Stated conditions: 6.8 nM NAMPT, 200 nM probe, equilibrated 3 hours, absence of substrates
pIC50: −log10 of the molar value.
In this section we review reported pIC50 values for a set of compounds.
Readout type: pIC50

>>> observed_value("O=C(Nc1ccc(OC2CCN(C(=O)c3nccs3)CC2)cc1)C1CN(c2cccnn2)C1")
6.98
>>> observed_value("O=C(Nc1ccc(OC2CCN(C(=O)CC3CCOCC3)CC2)cc1)C1CN(c2cnccc2C(F)(F)F)C1")
6.98
>>> observed_value("O=C(Nc1ccc(C2CCN(C(=O)Cc3ccc(F)cc3)CC2)cc1)C1CN(c2cccnn2)C1")
7.19
